The reported numbers originate from PubChem BioAssay (NCI).

System: UO-31 renal
Test: NCI tumour cell line growth inhibition, 48 h
OUTCOME MEASURE: TGI (µM)
Express it in µM; write the number only.

Sample records with TGI:
CHEM SMILES	TGI, µM
CC(=O)Nc1ccc(/C=c2\sc3nnc(-c4cccnc4)n3c2=O)cc1	24.7
O=C1Nc2ccc(Cl)c(I)c2C1=O	38.8

Request: Look up TGI for this compound: COc1ccc2c3/c(=C\c4ccc(N(C)C)cc4)c4ccccc4n3[n+](C)c2c1
Response: 1.66

----------
Tested on: SF-268 CNS
Assay: NCI tumour cell line growth inhibition, 48 h
Listed here are molecules together with their documented TGI.
Express it in µM; write the number only.

MOLECULE	TGI, µM
COc1cccc(CCNc2c(C#N)c3n(c4ccccc4[n+]3C)c3ncccc23)c1	38.5
COc1cc2c[n+](C)c3c4cc(OC)c(OCc5ccccc5)cc4c(OCc4ccccc4)cc3c2cc1OC	17.4
N#CC1=C(N)N(/N=C/c2ccco2)C(c2ccco2)C1(C#N)C#N (centres undefined)	79.7

Request: Look up TGI for this molecule: COc1ccc2c3/c(=C\c4ccc(N(C)C)cc4)c4ccccc4n3[n+](C)c2c1
Response: 3.03

Request: Look up TGI for this molecule: CCc1c(C)c2cc(-n3c(-c4ccc(OC)cc4)csc3=N)c(O)c(C)c2oc1=O
Response: 10.3

----------
Tested on: NCI-H23 lung
Assay: NCI tumour cell line growth inhibition, 48 h
OUTCOME MEASURE: TGI

COMPOUND	TGI
Cc1nc2ccc(NC3OCC(O)C(O)C3O)cc2c(=O)n1-c1ccccc1 (centres undefined)	> 100 µM
COc1ccccc1C(=O)OCC1CCCN2CCCCC12 (centres undefined)	> 100 µM
CCCCCCCCN=C(NCCCCCCCC)SCc1cccc2ccccc12	2.52 µM
CC(C)(C)[Si](C)(C)OC1[C@@H](COC(=O)NC(=O)CCl)O[C@@H](n2cnc3c(N)ncnc32)[C@H]1O[Si](C)(C)C(C)(C)C (some centres undefined)	2.32 µM

# ---- query compound ----
Request: Look up TGI for this compound: COC(=O)C(=O)C(C(=O)OC)C(=O)C(=O)Nc1c(Cl)cc([N+](=O)[O-])cc1Cl (centres undefined)
Response: > 100 µM

----------
Test system: SF-295 CNS
Assay: NCI tumour cell line growth inhibition, 48 h
OUTCOME MEASURE: TGI

Sample records with TGI:
COMPOUND	TGI
CC1=C2C=CC(=O)C[C@@]2(C)CCC1	> 100 µM
O=C(Oc1c(Cl)cc(Cl)cc1Cl)c1ccccc1Nc1ccnc(C(F)(F)F)c1	> 100 µM
C=CCOC(=O)Cn1ccc(=O)[nH]c1=O	> 100 µM
COc1ccc2c(c1)-c1c(c3cc(OC)ccc3n(CCN(C)C)c1=O)C2=O	2.99 µM
CC12CCc3ccccc3C1=NNC(=O)C2 (stereo not drawn)	> 100 µM

Request: Look up TGI for this compound: CCSc1nc(N/N=C/c2cccs2)c2cnn(CO)c2n1
Response: 29.8 µM

Request: Look up TGI for this compound: O=C1C(=C([O-])c2ccccc2)C(=O)c2ccccc21.O=C1C(=C([O-])c2ccccc2)C(=O)c2ccccc21.[Ni+2]
Response: > 100 µM

Request: Look up TGI for this compound: COc1ccc(/C=C/C(=O)c2ccc(Br)cc2)cc1
Response: > 100 µM

Request: Look up TGI for this compound: O=C(NCCNCCO)c1ccc(Nc2nc3ccccc3c3occc23)cc1
Response: 29.8 µM

Request: Look up TGI for this compound: CCCCCCCCCCCCCS(=O)(=O)NCC(N)=O
Response: > 100 µM

Request: Look up TGI for this compound: O=c1[nH]c2ccc(CC(=S)N3CCOCC3)cc2o1
Response: > 100 µM

Request: Look up TGI for this compound: COc1ccc(-c2oc3cc(O)c(OC)c(O)c3c(=O)c2O)cc1
Response: 53.6 µM

Request: Look up TGI for this compound: COC(=O)C(CCC1(C)OCCO1)=[N+]=[N-]
Response: > 100 µM

Request: Look up TGI for this compound: O=C(O)c1nn(-c2ccccc2)nc1-c1nn(-c2ccccc2)nc1C(=O)O
Response: > 100 µM

Request: Look up TGI for this compound: Cc1[nH]c2nccn2c(=O)c1CCO
Response: > 10 µM

Request: Look up TGI for this compound: CC(=O)c1c(C)c2cnc(Nc3ccc(N4CCNCC4)cn3)nc2n(C2CCCC2)c1=O
Response: 28.9 µM

Request: Look up TGI for this compound: NC1=Nc2ccccc2Sc2cccc(F)c21
Response: > 100 µM

Request: Look up TGI for this compound: CN1CCN(c2nc(N)c(Br)c(Cl)n2)CC1
Response: > 100 µM

Request: Look up TGI for this compound: CN1C(=O)C23CCCC2CC1(c1ccccc1)S3 (stereo not drawn)
Response: > 100 µM

Request: Look up TGI for this compound: COc1cc2c[n+](C)c3c4cc(OC)c(OCc5ccccc5)cc4c(OCc4ccccc4)cc3c2cc1OC
Response: > 69.3 µM

----------
Test system: DU-145 prostate
Assay: NCI tumour cell line growth inhibition, 48 h
OUTCOME MEASURE: TGI

Request: Look up TGI for this compound: CCC(Nc1ncnc2nc[nH]c12)C(=O)O (stereo unspecified)
Response: > 100 µM

----------
Tested on: NCI-H460 lung
Assay: NCI tumour cell line growth inhibition, 48 h
Where a SMILES comes first, the peptide text is derived from it. [ ]: non-standard residue; d: D form. The star is where a group is joined. ξ: configuration not given here. NMeF = CN[CH](Cc1ccccc1)C(=O)O; ξNMe2Val = CC(C)C(C(=O)*)N(C)C; NMeV = CN[CH](C(=O)O)C(C)C; OtBu = CC(C)(C)O*
OUTCOME MEASURE: TGI

COMPOUND	OUTCOME MEASURE	RESULT VALUE
CCC(Nc1ncnc2nc[nH]c12)C(=O)O (configuration not stated)	TGI	> 100 µM

Request: Look up TGI for this compound: CC(=O)[CH-]C(=O)c1ccccc1.CC(=O)[CH-]C(=O)c1ccccc1.CC(=O)[CH-]C(=O)c1ccccc1.[Ga+3]
Response: 28.7 µM

Request: Look up TGI for this compound: CN(C)CC1CCC/C(=C\c2ccc(OC(=O)/C=C/c3ccc(Cl)cc3)cc2)C1=O (configuration not stated)
Response: 18.1 µM

Request: Look up TGI for this compound: O=C(N/C(=C\c1ccc(/C=C(\NC(=O)c2ccccc2)c2nc3c(O)nc(S)nc3[nH]2)cc1)c1nc2c(O)nc(S)nc2[nH]1)c1ccccc1
Response: > 100 µM

Request: Look up TGI for this compound: CC1OC(O[C@@H]2C=C3CC[C@@H]4[C@H](CC[C@]5(C)[C@@H](c6ccc(=O)oc6)CC[C@]45O)[C@@]3(C)CC2)C(O)C(OC2OC(CO)C(O)C(O)C2O)C1O (some centres not stated)
Response: 0.00143 µM

Request: Look up TGI for this compound: COc1ccc([C@H]2CC3C(=O)N(c4ccc(OC)cc4)C(=O)C3c3[nH]c4ccccc4c32)cc1 (some centres not stated)
Response: > 100 µM

Request: Look up TGI for this compound: CC(C)C(C(=O)N(C)C(Cc1ccccc1)C(=O)N(C)C(C(=O)N(C)C(C(=O)N1CCCC1C(=O)OC(C)(C)C)C(C)C)C(C)C)N(C)C (configuration not stated) (ξNMe2Val-[NMeF][NMeV][NMeV]P-OtBu; configuration not given here)
Response: > 100 µM

----------
Tested on: ACHN renal
Test: NCI tumour cell line growth inhibition, 48 h
Listed here are molecules together with their documented GI50.

N#Cc1c(N)nc(N2CCOCC2)c(C#N)c1-c1c(Cl)cccc1Cl 13.4 µM

Request: Look up GI50 for this molecule: CCOC(=O)/C=C1/SC(=Nc2ccc(C#N)cc2)N(Cc2ccco2)C1=O
Response: 1.78 µM

Request: Look up GI50 for this molecule: Cc1ccc(-c2nc3sc(C)cn3c2/C=C2\C(=O)Nc3ccc(Cl)cc32)cc1
Response: 4.27 µM

Request: Look up GI50 for this molecule: COc1ccc(-c2[nH]ncc2Nc2cc(OC)c(OC)c(OC)c2)cc1
Response: 10.3 µM

Request: Look up GI50 for this molecule: O=C(NCCNCCO)c1ccc(Nc2nc3ccccc3c3occc23)cc1
Response: 14.2 µM

----------
Test system: SF-295 CNS
Test: NCI tumour cell line growth inhibition, 48 h; in the data active means GI50 below about 0.43 µM; inactive means the rest
Your reply should match one of these outcome classes. active, inactive

These recorded examples may help you get a feel for the data.
MOLECULE	CLASS NAME
N#CC1=C(N)OC2=C(CCOc3c2ccc2ccccc32)C1c1ccc(Br)cc1 (stereo not given)	inactive
CCC(=O)Nc1nnc(Cc2ccc(OC)c(OC)c2)s1	inactive
Fc1ccc(Nc2nc(Nc3ccc(-c4nc5ccccc5[nH]4)cc3)c3cn[nH]c3n2)cc1	inactive
C(=N\Nc1ccc2ccccc2n1)/c1ccccn1	active
CCN1C(=O)N(CC)C2C1N=C(SC)N2/N=C/C=C/c1ccccc1OC (stereo not given)	active
Cc1cc(N(CCNc2ccnc3cc(Cl)ccc23)Cc2ccc3c(c2)OCO3)nc(N2CCCC2)n1	inactive
COc1ccc2c(c1)C(=O)c1c-2n(CCCN(C)C)c(=O)c2cc([N+](=O)[O-])ccc12	active
Cc1cc(N2CCOCC2)nc(NCc2cc(Nc3ccnc4cc(Cl)ccc34)ccc2F)n1	inactive
CC(C)(C)[Si](C)(C)OC1[C@@H](COC(=O)NC(=O)CCl)O[C@@H](n2cnc3c(N)ncnc32)[C@H]1O[Si](C)(C)C(C)(C)C (stereo not given in full)	inactive
CSc1ccc(C(=O)/C=C/c2ccc(Cl)cc2Cl)cc1	inactive

Request: Returns: the outcome recorded for Oc1[nH]c2ccccc2c1C=Nc1ccc(-n2cncn2)cc1 in this assay.
Response: inactive

Request: Returns: the outcome recorded for S=C(SSC(=S)N1CCCCC1)N1CCCCC1 in this assay.
Response: inactive

Request: Returns: the outcome recorded for Cn1c(I)c(C#C[Si](C)(C)C)c(=O)[nH]c1=O in this assay.
Response: inactive

Request: Returns: the outcome recorded for COc1cc(-c2ccc[nH]2)[nH]c1/C=C1\N=C(C)C(CC(=O)OCC(C)(C)C)=C1C in this assay.
Response: active

Request: Returns: the outcome recorded for COC(=O)c1cc2cc(/C=C3/SC(=S)N(N(C(C)=O)C(C)=O)C3=O)oc2n1Cc1ccccc1 in this assay.
Response: inactive
